target desc: T1, TAX1BP3 PDZ (7–124) (human, UniProt O14907 7-124)
T1 sequence: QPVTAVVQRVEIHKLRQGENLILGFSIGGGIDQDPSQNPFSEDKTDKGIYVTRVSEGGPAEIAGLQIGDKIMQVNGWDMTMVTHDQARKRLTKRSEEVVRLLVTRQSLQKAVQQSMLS
test: fluorescence polarisation
* marks the point of attachment. FITC = O=C1OC2(c3ccc(O)cc3Oc3cc(O)ccc32)c2ccc(NC(=S)*)cc21
value type: Kd

Dear colleague, please send me the reported Kd for {FITC}-QNTDDVQTSF-OH [FITC-labeled C-terminal peptide of ACE2(796–805)] when you can.
> 100 µM

Just for reference, paper PMC7928716 is where these values come from.
